- target.entity: Recombinant full length human CBS (Homo sapiens)
- test.name: AzMC fluorescence assay of CBS-derived H2S production
- Assay type: biochemical
pIC50: −log10 of the molar value.
Please go through the items and note down their pIC50.

These recorded examples may help you get a feel for the data.
>>> reading("O=C(O)C1=CC(=C(c2ccc(O)c(C(=O)O)c2)c2ccc(O)c(C(=O)O)c2)C=CC1=O [Aurintricarboxylic acid]")
"~5.52"
>>> reading("Cn1ncnc2c(=O)n(C)c(=O)nc1-2 [NSC67078]")
"~6.00"
>>> reading("Oc1c(Cl)cc(Cl)c(Cl)c1Cc1c(O)c(Cl)cc(Cl)c1Cl.Oc1c(Cl)cc(Cl)c(Cl)c1Cc1c(O)c(Cl)cc(Cl)c1Cl [Hexachlorophene]")
"~4.22"

Let's switch to this molecule now.
What measured pIC50 is associated with O=C(OC[C@H]1O[C@@H](OC(=O)c2cc(O)c(O)c(OC(=O)c3cc(O)c(O)c(O)c3)c2)[C@H](OC(=O)c2cc(O)c(O)c(OC(=O)c3cc(O)c(O)c(O)c3)c2)[C@@H](OC(=O)c2cc(O)c(O)c(OC(=O)c3cc(O)c(O)c(O)c3)c2)[C@@H]1OC(=O)c1cc(O)c(O)c(OC(=O)c2cc(O)c(O)c(O)c2)c1)c1cc(O)c(O)c(OC(=O)c2cc(O)c(O)c(O)c2)c1 [Tannic acid] on Recombinant full length human CBS (Homo sapiens)?
~4.40

###

Please go through the items and note down their Initial screen (% inhibition of CBS-induced AzMC fluorescence).
- target.entity: Recombinant full length human CBS (Homo sapiens)
- Sequence (P35520 1-551): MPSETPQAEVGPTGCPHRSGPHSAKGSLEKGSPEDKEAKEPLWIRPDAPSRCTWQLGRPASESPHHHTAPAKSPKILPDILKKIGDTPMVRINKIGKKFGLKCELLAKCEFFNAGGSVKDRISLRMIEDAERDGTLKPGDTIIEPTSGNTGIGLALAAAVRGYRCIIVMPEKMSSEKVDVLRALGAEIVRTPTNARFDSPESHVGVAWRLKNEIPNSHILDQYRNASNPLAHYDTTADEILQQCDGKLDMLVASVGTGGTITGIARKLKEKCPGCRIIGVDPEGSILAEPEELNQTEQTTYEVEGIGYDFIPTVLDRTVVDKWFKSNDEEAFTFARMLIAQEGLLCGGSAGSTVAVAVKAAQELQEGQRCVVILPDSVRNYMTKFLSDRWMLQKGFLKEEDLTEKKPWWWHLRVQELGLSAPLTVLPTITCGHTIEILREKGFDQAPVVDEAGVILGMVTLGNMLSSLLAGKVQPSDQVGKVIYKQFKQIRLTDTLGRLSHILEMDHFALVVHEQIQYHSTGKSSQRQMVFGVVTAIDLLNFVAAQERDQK
- test.name: AzMC fluorescence assay of CBS-derived H2S production
- Assay type: biochemical
- setup.conditions: 30 μM
Numbers only, in %.

These recorded examples may help you get a feel for the data.
>>> reading("N#C/C(=C\\c1ccc(O)c(O)c1)C(=O)NCCCNC(=O)/C(C#N)=C/c1ccc(O)c(O)c1")
49
>>> reading("O=S(=O)([O-])c1cc(N=C=S)ccc1C=Cc1ccc(N=C=S)cc1S(=O)(=O)[O-].[Na+].[Na+]")
69
>>> reading("NC(N)=NC(=O)c1nc(Cl)c(N2CCCCCC2)nc1N [5-(N,N-hexamethylene)amiloride]")
72
>>> reading("O=C1C(SCCO)=C(SCCO)C(=O)c2ccccc21")
70

Let's switch to this compound now.
Name the reported Initial screen (% inhibition of CBS-induced AzMC fluorescence) value associated with the compound N.N.N.N.N.N.N.N.N.N.N.N.N.N.[Cl-].[Cl-].[Cl-].[Cl-].[Cl-].[Cl-].[O-2].[O-2].[Ru+3].[Ru+3].[Ru+4]
72

# credit: paper PMC5107130
